# Experiment Notes: Quantitative High-Throughput drug screen in 47 multiple myeloma cell lines against the NCATS MIPE library collection: PE2_PLB cell viability assay (AID 1919869); also: nearly all actives have a fitted effect of over 35% in size
# Condition Parameters: PE2_PLB myeloma cells viability, ATP luminescence, 48 h; series mostly up to 45.8 µM
Inconclusive results are not listed. Calls of active or inactive are those of the source. Calls follow the shape of the dose curve; as a rule, active = well fitted cell-killing curve with a large enough effect; inconclusive = small, poorly fitted or top-dose-only effect, or effect the other way; inactive = no such curve, though single readings can be large or run the other way.
The reply should name one outcome from true = active, false = inactive

Use these answered entries as a reference point.
CC(C)n1c(C=C[C@H](O)C[C@H](O)CC(=O)O)c(-c2ccc(F)cc2)c2ccccc21 = true
CN1CC(=O)NC1=NC(=O)Nc1cccc(Cl)c1 = true
O=C1NC(=O)C(=Cc2ccc(-c3ccc(F)cc3O)o2)S1 = true
CC1(C)CC(=O)c2c(C(F)(F)F)nn(-c3ccc(C(N)=O)c(NC4CCC(O)CC4)c3)c2C1 (centres undefined) = true
Cc1ccc(NC(=O)c2cccc(N(C)C)c2)cc1NC(=O)c1ccc(O)cc1 = true

Task: Tell me the recorded outcome of this test for Cc1cccc2c1CC[C@H](CN1CCC(c3c(Cl)cccc3Cl)CC1)C[C@@H]2O .
Output: true

Task: Hello, I am checking results. What call was entered for C[C@]12C=CC(=O)C=C1CC[C@@H]1[C@@H]2[C@@H](O)C[C@@]2(C)[C@@H]1CC[C@]2(O)C(=O)CO ?
Output: false

Task: Hello, I am checking results. What call was entered for C[C@@]1(C(=O)Nc2ccc(F)nc2)CCCN1c1nc(Nc2cc(C3CC3)[nH]n2)c2cccn2n1 ?
Output: true

Task: For CN1CCc2c(n(Cc3ccc(C(=O)NO)cc3)c3ccccc23)C1 , which call appears in the assay record?
Output: true

###

# Tested on: DFO2036
# Experiment Notes: qHTS profiling for inhibitors of Plasmodium falciparum proliferation (AID 504749); also: nearly all actives have a fitted effect of over 60% in size
# Condition Parameters: P. falciparum in erythrocytes, SYBR Green DNA, 72 h; series mostly up to 28.7 µM
# Method: NIH National Institute of Allergy and Infectious Diseases [NIAID] NIH Chemical Genomics Center [NCGC] […] Because mature erythrocytes lack DNA, only Plasmodium-derived DNA is detected. NCGC Assay Protocol Summary: The SYBR Green viability assay was adapted from a method described previously (Plouffe et al., 2008). […] The following morning, fluorescence intensity at 485(14) nm excitation and 535(25) nm emission wavelengths was measured on an EnVision (Perkin Elmer) plate reader. […]
Results filed as inconclusive are left out. Activity calls are given as the source filed them. Calls follow the shape of the dose curve; as a rule, active = well fitted inhibition curve with a large enough effect; inconclusive = small, poorly fitted or top-dose-only effect; inactive = flat fitted curve, though single readings scatter.
Valid outcomes are listed here; reply with one: active, inactive

O=C1C(CCC(O)c2ccc(F)cc2)C(c2ccc(O)cc2)N1c1ccc(F)cc1 (stereo not given) = inactive
CN1CC(=O)N2C(Cc3c([nH]c4ccccc34)[C@H]2c2ccc3c(c2)OCO3)C1=O (stereo not given in full) = inactive
COc1c(C)c2c(c(O)c1CC=C(C)CCC(=O)OCCN1CCOCC1)C(=O)OC2 = active

Task: Fill in: this test's call for COc1cc2c(cc1OC)CC(=O)N(CCCN(C)C[C@H]1Cc3cc(OC)c(OC)cc31)CC2 is ___
Output: inactive

Task: # outcome recorded in this test, key = COc1ccnc(CS(=O)c2nc3ccc(OC(F)F)cc3[nH]2)c1OC (stereo not given)
Output: inactive

###

# System: NIH3T3
# Experiment Notes: Cytotoxic Profiling of Annotated Libraries Using Quantitative High-Throughput Screening (AID 1296008); also: nearly all actives have a fitted effect of over 60% in size
# Condition Parameters: Five cell lines viability, CellTiter-Glo ATP luminescence, 48-72 h
# Protocol: Cell-based phenotypic screening is a commonly used approach to discover biological pathways, novel drug targets, chemical probes and high-quality hit-to-lead molecules. […] A pintool (Kalypsys) was used to transfer 23 nL of compound solution to the 1536-well assay plates. […] Plates were left at room temperature for 10 min before imaging the ATP-coupled luminescence using a ViewLux microplate imager (PerkinElmer, Waltham, MA).
Results filed as inconclusive are left out. The source made the active and inactive calls. The call rests on the fitted dose curve; in most records, active means well fitted inhibition curve with a large enough effect; inconclusive means small, poorly fitted or top-dose-only effect; inactive means flat fitted curve, though single readings scatter.
// classify into True = active, False = inactive

Solved entries (count: 3):
NC(=O)c1ccc(N(C(N)=O)c2c(F)cccc2F)nc1-c1ccc(F)cc1F = False
Cc1cc2c(cc1C1(c3ccc(C(=O)O)cn3)CC1)C(C)(C)CCC2(C)C = False
CN1N=C(N)c2cn([C@@H]3O[C@H](COP(=O)(O)O)[C@@H](O)[C@@H]3O)c3ncnc1c23 = True

Task: // param item: COc1c(C)c2c(c(O)c1CC=C(C)CCC(=O)OCCN1CCOCC1)C(=O)OC2 ; yields the recorded call
Output: True

Task: Recorded test outcome, item CSc1cccc(Nc2ncc3cc(-c4c(Cl)cccc4Cl)c(=O)n(C)c3n2)c1
Output: True

Task: Dear colleague, could you share the recorded outcome for CCOC(=O)N1c2ccc(C(F)(F)F)cc2[C@@H](N(Cc2cc(C(F)(F)F)cc(C(F)(F)F)c2)C(=O)OC)C[C@H]1CC when you have a moment?
Output: False

Task: Answer briefly: the call reported for CC(C)Oc1cc(Nc2nc(N[C@@H](C)c3ccc(F)cn3)ncc2Cl)[nH]n1 in this assay.
Output: True

Task: Recorded test call requested for Cc1cnc(-c2cc(N3CCN(C(=O)CCS(C)(=O)=O)CC3)ncc2Cl)c(C)c1
Output: False

Task: Assay result, entry CCOC(=O)[C@H](CCc1ccccc1)N[C@@H](C)C(=O)N1CCCC1C(=O)O (stereo partly drawn) — outcome?
Output: False

Task: Entry COc1ccc(-c2cc(=O)c3c(O)cc(O[C@@H]4O[C@H](CO[C@@H]5O[C@@H](C)[C@H](O)[C@@H](O)[C@@H]5O)[C@@H](O)[C@H](O)[C@@H]4O)cc3o2)cc1O : call = ?
Output: False

Task: Could you please tell me the result logged for COc1cc2ncnc(Nc3cc(Br)c(O)c(Br)c3)c2cc1OC in this assay?
Output: False

Task: Recorded test outcome, item CCC(c1ccc(O)cc1)C(CC)c1ccc(O)cc1 (stereo not drawn)
Output: False

###

# System: Nanoluciferase (engineered Oplophorus gracilirostris luciferase)
# Experiment Notes: Primary Nanoluciferase (NLuc) qHTS assay for identification of artifact compounds. (AID 1845222);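 also: NLuc secreted into diluted conditioned medium of S16 cells; 0% = DMSO and -100% = no enzyme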
# Condition Parameters: NLuc-conditioned medium, Nano-Glo luminescence, 5 min; series mostly up to 54.1 µM
Calls of active or inactive are those of the source. The call rests on the fitted dose curve; in most records, active means well fitted inhibition curve with a large enough effect; inconclusive means small, poorly fitted or top-dose-only effect; inactive means flat fitted curve, though single readings scatter.
Endpoint: activity, negative = inhibition

Some entries whose results are on file:
Cc1cnc(CNC(=O)c2c(=O)c3ccc(N4CCCN(C)CC4)nc3n3c2sc2ccccc23)cn1 = 4.41% [at 11.6 µM] (inactive)
CN1C(=O)C(Cc2c[nH]c3ccccc23)NC1=S (stereo not given) = inactive
CC1CCN(c2cc(N3CCN(C)CC3)ccc2NC(=O)c2cc(C#N)c[nH]2)CC1 = inactive
CCN1CCN(c2ccc(Nc3cc(N(C)C(=O)Nc4c(Cl)c(OC)cc(OC)c4Cl)ncn3)cc2)CC1 = inactive

Next molecule, activity, negative = inhibition to be filled in.
Query CN[C@@H](C)[C@H]1[C@H](O)C[C@@]2(C)[C@@H]3CC[C@H]4C(C)(C)[C@@H](NC)CC[C@@]45C[C@@]35CC[C@]12C yields activity, negative = inhibition of 3.6% [at 11.6 µM] (inactive)

###

# Experiment Notes: Quantitative High-Throughput drug screen in 47 multiple myeloma cell lines against the NCATS MIPE library collection: INA6_PLB cell viability assay (AID 1918965; also: nearly all actives have a fitted effect of over 55% in size)
# Condition Parameters: INA6 myeloma viability, CellTiter-Glo ATP luminescence, 48 h; series mostly up to 45.8 µM
Inconclusive results are not listed. The source made the active and inactive calls. Calls come from the whole dose curve; as a rule, active = well fitted cell-killing curve with a large enough effect; inconclusive = small, poorly fitted or top-dose-only effect, or effect the other way; inactive = no such curve, though single readings can be large or run the other way.
Response enum: 1.0 (active), 0.0 (inactive)

CC[C@H](C)C(=O)O[C@H]1C[C@H](O)C=C2C=C[C@H](C)[C@H](CC[C@@H](O)C[C@@H](O)CC(=O)O)[C@H]21 = 0.0

Task: Hi team, can someone confirm the assay call for CN1CCC(COc2cnc(-c3cccc(Cn4nc(-c5cccc(C#N)c5)ccc4=O)c3)nc2)CC1 ?
Output: 1.0

Task: Recorded test call requested for O=c1[nH]c(=O)n([C@H]2C[C@@H](O)[C@@H](CO)O2)cc1C(F)(F)F
Output: 1.0

Task: Test call for this compound, please: CN[C@@H]1[C@@H](O)[C@@H](O[C@@H]2[C@@H](O)[C@H](O[C@H]3O[C@H](CN)[C@@H](O)[C@H](O)[C@@H]3O)[C@@H](N)C[C@@H]2NC(=O)[C@@H](O)CN)OC[C@]1(C)O
Output: 0.0

Task: In this assay, the call recorded for O=C(NC[C@H](O)CO)c1ccncc1Nc1ccc(I)cc1F was what?
Output: 1.0

Task: Dear all, I need the recorded test outcome for CCC(=C(c1ccc(O)cc1)c1ccc(OCCNC)cc1)c1ccccc1 , thank you.
Output: 1.0

###

# Experiment Notes: Quantitative High-Throughput drug screen in 47 multiple myeloma cell lines against the NCATS MIPE library collection: ARD_JJKsccE7 cell viability assay (AID 1918929; also: potency is read from the fitted curve at half-maximal effect;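 as to viability: 100% = DMSO-only wells and 0% = media-only wells without cells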)
# Condition Parameters: ARD myeloma cell line viability, CellTiter-Glo, 48 h; series mostly up to 45.8 µM
# Source text: PI: Beverly A. Mock Ph.D. Laboratory of Cancer Biology and Genetics, Center for Cancer Research, National Cancer Institute, National Institute of Health, Bethesda, Maryland […] 5; Detector; 425V; Luminescence; Viewlux PerkinElmer. […] 1. […] Briefly, the corresponding myeloma cell lines were screened in 1,536-well plates with 500 cells, 5-uL per well for inhibition of cell viability (assessed by measuring ATP levels with CellTiterGlo). […]
Inconclusive results are not listed. Activity calls are given as the source filed them. Calls come from the whole dose curve; as a rule, active = well fitted cell-killing curve with a large enough effect; inconclusive = small, poorly fitted or top-dose-only effect, or effect the other way; inactive = no such curve, though single readings can be large or run the other way.
Endpoint: Potency

# example entries with known answers
C[C@@H]1[C@H](C)CC[C@]2(C(=O)O)CC[C@]3(C)C(=CC[C@@H]4[C@@]5(C)CC[C@H](O)C(C)(C)[C@H]5CC[C@]43C)[C@@H]12 = inactive
C[C@H](c1ccc(F)cc1CCCC(=O)O)N(c1cc(F)ccc1F)S(=O)(=O)c1ccc(Cl)cc1 = inactive
COc1cc(F)c(C(C)C)cc1-c1ccc(C(F)(F)F)cc1CN1C(=O)O[C@H](c2cc(C(F)(F)F)cc(C(F)(F)F)c2)[C@@H]1C = inactive
CN[C@@H]1CN(c2ccc3c(=O)c(C(=O)O)cn(-c4nccs4)c3n2)C[C@@H]1OC = inactive
Cc1cn([C@@H]2C[C@@H](O)[C@H](CO)O2)c(=O)[nH]c1=O = inactive

Parameter requested: Potency. Apply to each item below.
1. COc1ccc(-c2nc3ccc(C4=NNC(=O)CC4C)cc3[nH]2)cc1 (stereo not given)
2. CN[C@@H]1[C@@H](O)[C@@H](O[C@@H]2[C@@H](O)[C@H](O[C@H]3O[C@H](CN)[C@@H](O)[C@H](O)[C@@H]3O)[C@@H](N)C[C@@H]2NC(=O)[C@@H](O)CN)OC[C@]1(C)O
3. CNC(=O)c1cc(Oc2ccc(NC(=O)Nc3ccc(Cl)c(C(F)(F)F)c3)c(F)c2)ccn1
4. C[C@@]1(c2cc(-c3cncnc3)c(F)cc2F)CCSC(N)=N1
5. Cc1cc(-c2ncc(CC(=O)Nc3ccc(-c4cnccn4)cn3)cc2C)ccn1
6. CCC(c1ccc(O)cc1)C(CC)c1ccc(O)cc1 (stereo not given)
7. CN(C(Cc1ccc(OS(=O)(=O)c2cccc3cnccc23)cc1)C(=O)N1CCN(c2ccccc2)CC1)S(=O)(=O)c1cccc2cnccc12 (stereo not given)
8. NC(N)=Nc1nc(CSCCC(N)=NS(N)(=O)=O)cs1

Output:
1. inactive
2. inactive
3. 5.26 µM (active)
4. 0.059 µM (active)
5. 9.35 µM (active)
6. inactive
7. 5.9 µM (active)
8. inactive

State recorded Potency for all listed compounds.
1. CN1CCN(c2ncc(-c3cc(Cl)cc(Cl)c3Cl)c(N)n2)CC1
2. CN(C)CC[C@H](CSc1ccccc1)Nc1ccc(S(=O)(=O)NC(=O)c2ccc(N3CCN(Cc4ccccc4-c4ccc(Cl)cc4)CC3)cc2)cc1[N+](=O)[O-]
3. Fc1ccc(C(c2ccc(F)cc2)N2CCN(CC=Cc3ccccc3)CC2)cc1
4. CC(NCCc1ccc(O)cc1)C(O)c1ccc(O)cc1 (stereo not given)

Output:
1. inactive
2. 8.33 µM (active)
3. inactive
4. inactive
